# System: HEK293T
# assay: qHTS assay to identify novel small-molecules to repurpose for Merkel cell carcinoma treatment (AID 1296009); further: nearly all actives have a fitted effect of over 60% in size
# particulars: MCC and control cell lines, CellTiter-Glo viability, 72 h; series mostly up to 44.8 µM
Inconclusive results are not listed. Calls of active or inactive are those of the source. The call rests on the fitted dose curve; in most records, active means well fitted inhibition curve with a large enough effect; inconclusive means small, poorly fitted or top-dose-only effect; inactive means flat fitted curve, though single readings scatter.
testReadout: outcome

Illustrative cases are given below, each with its answer.
{"molecule": "C[C@@H]1C[C@H](O[C@@H]2O[C@H](CO[C@@H]3OC[C@](O)(CO)[C@H]3O)[C@@H](O)[C@H](O)[C@H]2O)CC(C)(C)[C@H]1/C=C/[C@@H](C)O", "testReadout": "outcome", "result": "inactive"}
{"molecule": "CC1CCC2(C(=O)OC3OC(CO)C(O)C(O)C3O)CCC3(C(=O)O)C(=CCC4C5(C)CCC(OC6OC(C)C(O)C(O)C6O)C(C)(C)C5CCC43C)C2C1C (configuration not stated)", "testReadout": "outcome", "result": "inactive"}
{"molecule": "CC(=O)O[C@@H]1C[C@]2(C)[C@@]3(CCC4[C@@]5(C)CC[C@H](O[C@@H]6O[C@H](C(=O)O)[C@@H](O)[C@H](O[C@@H]7O[C@H](CO)[C@H](O)[C@H](O)[C@H]7O[C@@H]7O[C@@H](C)[C@H](O)[C@@H](O)[C@H]7O[C@@H]7OC[C@](O)(CO)[C@H]7O)[C@H]6O[C@@H]6O[C@H](CO)[C@H](O)[C@H](O)[C@H]6O)C(C)(C)C5CC[C@]42C)O[C@@H](O)[C@]12C3CC(C)(C)[C@@H](OC(=O)/C=C/c1ccc(O)c(O)c1)[C@@H]2OC(=O)/C=C/c1ccccc1 (some centres not stated)", "testReadout": "outcome", "result": "inactive [at 9.27 µM]"}
{"molecule": "COC(=O)C1(Cc2ccc(O)cc2)OC(=O)C(OC)=C1c1ccc(O)cc1 (configuration not stated)", "testReadout": "outcome", "result": "inactive"}

What does the data say about its outcome? Entry: `C[C@H]1C[C@H]2[C@@H]3CCC4=CC(=O)C=C[C@]4(C)[C@@]3(F)[C@@H](O)C[C@]2(C)[C@@]1(O)C(=O)COP(=O)(O)O`
inactive

How about this molecule: N#CC1C(=O)Nc2scc(-c3ccc(-c4ccccc4O)cc3)c2C1=O (configuration not stated)
inactive

Follow-up item: `C/C=C1/[C@H](O[C@@H]2O[C@H](CO)[C@@H](O)[C@H](O)[C@H]2O)OC=C(C(=O)OC)[C@H]1CC(=O)O[C@@H]1O[C@H](CO)[C@@H](O)[C@H](O)[C@H]1O`
inactive

What about `C=CCc1ccc(O[C@@H]2O[C@H](CO[C@@H]3O[C@H](CO)[C@@H](O)[C@H](O)[C@H]3O)[C@@H](O)[C@H](O)[C@H]2O)c(O)c1` ?
inactive

Try the molecule CC1(CO)CC2C(O)C(=O)C3(CO)CC3(C)C2C1 (configuration not stated)
inactive

Another molecule: CC1=CC(=O)CC(C)(CO[C@@H]2O[C@H](CO)[C@@H](O)[C@H](O)[C@H]2O)C1(O)/C=C/C(C)=C/C(=O)O (some centres not stated)
inactive

---

# System: DFO2036
# assay: qHTS profiling for inhibitors of Plasmodium falciparum proliferation (AID 504749); further: nearly all actives have a fitted effect of over 60% in size
# particulars: P. falciparum in erythrocytes, SYBR Green DNA, 72 h; series mostly up to 28.7 µM
# Protocol: NIH National Institute of Allergy and Infectious Diseases [NIAID] NIH Chemical Genomics Center [NCGC] […] Because mature erythrocytes lack DNA, only Plasmodium-derived DNA is detected. NCGC Assay Protocol Summary: The SYBR Green viability assay was adapted from a method described previously (Plouffe et al., 2008). […] The following morning, fluorescence intensity at 485(14) nm excitation and 535(25) nm emission wavelengths was measured on an EnVision (Perkin Elmer) plate reader. […]
Records with an inconclusive call do not appear. Active and inactive are the calls of the source. Calls follow the shape of the dose curve; as a rule, active = well fitted inhibition curve with a large enough effect; inconclusive = small, poorly fitted or top-dose-only effect; inactive = flat fitted curve, though single readings scatter.
Please answer using one outcome listed in yes (1) (active), no (0) (inactive)

A selection of reference data follows.
{"molecule": "CCCCC/C=C\\C/C=C\\CCCCCCCC(=O)O", "categoryLabel": "no (0)"}
{"molecule": "O=C(Nc1cccc(C(F)(F)F)c1)c1cc(Br)cc(Br)c1O", "categoryLabel": "yes (1)"}
{"molecule": "CCNC(=O)[C@@H]1CCCN1C(=O)[C@H](CCCN=C(N)N)NC(=O)[C@H](CC(C)C)NC(=O)[C@@H](Cc1c[nH]c2ccccc12)NC(=O)[C@H](Cc1ccc(O)cc1)NC(=O)[C@H](CO)NC(=O)[C@H](Cc1c[nH]c2ccccc12)NC(=O)[C@H](Cc1cnc[nH]1)NC(=O)[C@@H]1CCC(=O)N1", "categoryLabel": "yes (1)"}
{"molecule": "C=CCSSSCC=C", "categoryLabel": "no (0)"}
{"molecule": "Cc1c(C)c2c(c(C)c1O)CC[C@@](C)(CCC[C@H](C)CCC[C@H](C)CCCC(C)C)O2", "categoryLabel": "no (0)"}

Tell me the recorded outcome of this test for `O=C(O)c1cc(O)c2c(c1)[O][Bi][O]2` .
no (0)

Check `IC(I)I` too.
no (0)

What do you get for `CCCC(=O)O[C@]1(C(=O)CCl)[C@H](C)C[C@@H]2[C@H]3CCC4=CC(=O)C=C[C@]4(C)[C@@]3(F)C(=O)C[C@@]21C` ?
yes (1)

How about this molecule: Nc1c(Br)cc(Br)cc1CNC1CCC(O)CC1 (stereo not given)
no (0)

# iterate: CC1(C)C(C=C(Cl)Cl)C1C(=O)OCc1cccc(Oc2ccccc2)c1 (stereo not given)
no (0)

// query: CCC(=O)NCCC1CCc2ccc3c(c21)CCO3 (stereo not given)
no (0)

Entry CN1C(=O)CN2CCc3ccccc3C2c2cc(Cl)ccc21 (stereo not given) please
no (0)

Now try CCCCC(C)(O)C/C=C/[C@H]1[C@H](O)CC(=O)[C@@H]1CCCCCCC(=O)OC (stereo not given in full) .
no (0)

Same question for CC1=CCC(C(C)(C)O)CC1 (stereo not given) please.
no (0)

Can you check Oc1cc(O)c2c(c1)OC(c1ccc(O)c(O)c1)C(O)C2 (stereo not given) next?
no (0)

And then `CCCCCCCCCCCCCC[n+]1ccc(C)cc1` , what is it?
yes (1)

Query `Cc1cc(C(=O)NNCc2ccccc2)no1` next
no (0)

Let us now turn to COC(=O)[C@H]1[C@H]2CC3c4[nH]c5ccccc5c4CCN3C[C@@H]2CC[C@@H]1O (stereo not given in full)
no (0)

Next up: `CCCCCCCCCCCCCCCC(=O)OCC(COC(=O)CCCCCCCCCCCCCCC)OC(=O)CCCCCCCCCCCCCCC`
no (0)

What do you get for `CC[N+](C)(C)Cc1ccccc1Br` ?
no (0)

---

# Test system: astro
# assay: Drug repurposing screens with cells derived from glioblastoma tumor samples (AID 1345199); further: nearly all actives have a fitted effect of over 40% in size
# particulars: viability, ATP luminescence, 48 h; series mostly up to 45.9 µM
Results filed as inconclusive are left out. Calls of active or inactive are those of the source. The call rests on the fitted dose curve; in most records, active means well fitted inhibition curve with a large enough effect; inconclusive means small, poorly fitted or top-dose-only effect; inactive means flat fitted curve, though single readings scatter.
Respond using exactly one of the listed classes: active, inactive

Completed entries (count: 4):
{"chemSmiles": "Cc1cc(/C=C/c2ccc3cc(N(C)C)ccc3[n+]2C)c(C)n1-c1ccccc1", "categoryLabel": "active"}
{"chemSmiles": "CC1=C(/C=C/C(C)=C/C=C/C(C)=C/C=C/C=C(C)/C=C/C=C(C)/C=C/C2=C(C)CCCC2(C)C)C(C)(C)CCC1", "categoryLabel": "inactive"}
{"chemSmiles": "CCCCCCCC(=O)O", "categoryLabel": "inactive"}
{"chemSmiles": "CC(C)(C)C(=O)OCOC(=O)[C@@H]1N2C(=O)[C@@H](N=CN3CCCCCC3)[C@H]2SC1(C)C", "categoryLabel": "inactive"}

Please examine the following record next.
Hey, what did the test say about `Cc1ccccc1` ?
inactive

---

# System: CP286
# assay: qHTS profiling for inhibitors of Plasmodium falciparum proliferation (AID 504749); further: nearly all actives have a fitted effect of over 60% in size; further: potency means the concentration at half of the fitted maximal effect
# particulars: P. falciparum in erythrocytes, SYBR Green DNA, 72 h; series mostly up to 28.7 µM
Results filed as inconclusive are left out. The source made the active and inactive calls. Calls come from the whole dose curve; as a rule, active = well fitted inhibition curve with a large enough effect; inconclusive = small, poorly fitted or top-dose-only effect; inactive = flat fitted curve, though single readings scatter.
testReadout: Potency

Worked set:
{"compound": "COc1ccc2c3c1O[C@H]1C[C@@H](O)C=C[C@@]31CCN(C)C2", "Potency": "inactive"}
{"compound": "CC(C)(C)C(=O)OCOC(=O)[C@@H]1N2C(=O)[C@@H](N=CN3CCCCCC3)[C@H]2SC1(C)C", "Potency": "inactive"}
{"compound": "CCCCCCCCCCCCCC[n+]1ccc(C)cc1", "Potency": "1260 nM (active)"}
{"compound": "C[C@]12O[C@H](C[C@]1(O)CO)n1c3ccccc3c3c4c(c5c6ccccc6n2c5c31)CNC4=O", "Potency": "224 nM (active)"}
{"compound": "Cc1ccccc1OCC(O)CNCCOc1ccc(C(N)=O)cc1 (stereo not given)", "Potency": "inactive"}

Name the reported Potency value associated with the compound `C[C@]12CCC(=O)C=C1CC[C@@H]1[C@@H]2[C@@H](O)C[C@@]2(C)[C@H]1CC[C@]2(O)C(=O)COP(=O)(O)O`
inactive

Another compound to look at: `CCOC(C)=O`
inactive

And what about the compound `O=S(=O)(O)c1ccc2c(N=Nc3ccc(S(=O)(=O)O)c4ccccc34)c(O)c(S(=O)(=O)O)cc2c1` ?
inactive

Also `C#CCOc1ccc2c(C)cc(=O)oc2c1` ?
inactive

Also, `CC1=C(/C=C/C(C)=C/C=C/C(C)=C/C=C/C=C(C)/C=C/C=C(C)/C=C/C2=C(C)CCCC2(C)C)C(C)(C)CCC1` please.
inactive
